Give measured IC50 for each item. Keep answers brief.
System: K562/Dox cells
procedure-details: MTT colorimetric assay, cytotoxicity on resistant K562/Dox
Type: cell-based
cond: Homo sapiens, K562, 48 h, MTT, 48 h, K562/Dox; read-out: IC50 K562/Dox

Recorded results for 4 molecules are shown here.
1. C=C(C)[C@@H]1CC[C@]2(C(=O)NCc3cc(OC)c(OC)c(OC)c3)CC[C@]3(C)[C@H](CC[C@@H]4[C@@]5(C)CC[C@H](O)C(C)(C)[C@@H]5CC[C@]43C)[C@@H]12 :: 34.4 µM
2. C=C(C)[C@@H]1CC[C@]2(COC(=O)NCCc3ccc(OC)cc3)CC[C@]3(C)[C@H](CC[C@@H]4[C@@]5(C)CC[C@H](O)C(C)(C)[C@@H]5CC[C@]43C)[C@@H]12 :: > 50 µM
3. C=C(C)[C@@H]1CC[C@]2(COC(=O)/C=C/c3cc(OC)c(OC)c(OC)c3)CC[C@]3(C)[C@H](CC[C@@H]4[C@@]5(C)CC[C@H](O)C(C)(C)[C@@H]5CC[C@]43C)[C@@H]12 :: > 50 µM
4. C=C(C)[C@@H]1CC[C@]2(COC(=O)N3CCN(C)CC3)CC[C@]3(C)[C@H](CC[C@@H]4[C@@]5(C)CC[C@H](O)C(C)(C)[C@@H]5CC[C@]43C)[C@@H]12 :: 33.9 µM

// for each molecule in input: emit IC50
1. C=C(C)[C@@H]1CC[C@]2(COC(=O)Nc3cc(OC)c(OC)c(OC)c3)CC[C@]3(C)[C@H](CC[C@@H]4[C@@]5(C)CC[C@H](O)C(C)(C)[C@@H]5CC[C@]43C)[C@@H]12
2. C=C(C)[C@@H]1CC[C@]2(COC(=O)NCc3cc(OC)c(OC)c(OC)c3)CC[C@]3(C)[C@H](CC[C@@H]4[C@@]5(C)CC[C@H](O)C(C)(C)[C@@H]5CC[C@]43C)[C@@H]12

Output:
["> 50 µM", "> 50 µM"]

----------
subject-of-test: UniProtKB P08183
Sequence (P08183 whole entry): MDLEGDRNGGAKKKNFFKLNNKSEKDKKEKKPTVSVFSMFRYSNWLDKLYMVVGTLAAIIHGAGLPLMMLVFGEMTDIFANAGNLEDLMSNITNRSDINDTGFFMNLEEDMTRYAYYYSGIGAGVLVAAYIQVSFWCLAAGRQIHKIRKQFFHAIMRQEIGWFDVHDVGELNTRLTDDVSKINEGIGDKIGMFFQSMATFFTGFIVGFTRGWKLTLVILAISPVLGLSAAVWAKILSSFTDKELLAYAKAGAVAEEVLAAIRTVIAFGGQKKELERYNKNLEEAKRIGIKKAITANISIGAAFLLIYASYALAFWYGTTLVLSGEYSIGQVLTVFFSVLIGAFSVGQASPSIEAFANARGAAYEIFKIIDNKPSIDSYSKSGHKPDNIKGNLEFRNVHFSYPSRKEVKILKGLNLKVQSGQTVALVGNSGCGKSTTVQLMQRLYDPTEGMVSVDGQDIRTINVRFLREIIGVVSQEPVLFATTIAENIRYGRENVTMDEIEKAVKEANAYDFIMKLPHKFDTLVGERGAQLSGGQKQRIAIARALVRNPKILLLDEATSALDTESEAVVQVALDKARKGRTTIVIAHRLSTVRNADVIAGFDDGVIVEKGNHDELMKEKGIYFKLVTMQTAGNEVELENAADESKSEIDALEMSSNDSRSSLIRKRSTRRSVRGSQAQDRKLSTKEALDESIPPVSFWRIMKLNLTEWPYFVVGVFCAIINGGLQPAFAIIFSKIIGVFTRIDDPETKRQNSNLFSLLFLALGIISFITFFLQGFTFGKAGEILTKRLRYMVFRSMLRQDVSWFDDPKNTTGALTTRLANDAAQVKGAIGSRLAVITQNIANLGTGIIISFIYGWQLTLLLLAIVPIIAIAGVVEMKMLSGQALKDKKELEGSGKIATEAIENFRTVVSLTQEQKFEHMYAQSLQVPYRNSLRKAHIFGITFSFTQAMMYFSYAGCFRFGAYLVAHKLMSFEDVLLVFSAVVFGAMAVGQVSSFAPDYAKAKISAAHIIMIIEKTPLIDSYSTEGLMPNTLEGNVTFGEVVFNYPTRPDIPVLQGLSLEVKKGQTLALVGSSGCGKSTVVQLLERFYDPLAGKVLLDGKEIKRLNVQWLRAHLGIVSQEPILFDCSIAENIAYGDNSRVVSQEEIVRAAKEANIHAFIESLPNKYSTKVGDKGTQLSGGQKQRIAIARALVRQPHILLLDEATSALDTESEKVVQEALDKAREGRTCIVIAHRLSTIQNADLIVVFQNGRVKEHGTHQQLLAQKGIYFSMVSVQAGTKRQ
procedure-details: Rhodamine 123 intracellular accumulation assay in K562/Dox (flow cytometry)
cond: Rho123, K562/Dox, 50 µM
value-kind: FAR (fluorescence activity ratio)
One number for each entry.

Recorded results for 5 molecules are shown here.
1. C=C(C)[C@@H]1CC[C@]2(COC(=O)NCCc3ccc(OC)c(OC)c3)CC[C@]3(C)[C@H](CC[C@@H]4[C@@]5(C)CC[C@H](O)C(C)(C)[C@@H]5CC[C@]43C)[C@@H]12 :: 2.27
2. C=C(C)[C@@H]1CC[C@]2(C(=O)O)CC[C@]3(C)[C@H](CC[C@@H]4[C@@]5(C)CC[C@H](O)C(C)(C)[C@@H]5CC[C@]43C)[C@@H]12 [Compound 2, betulinic acid, reference compound] :: 1.05
3. C=C(C)[C@@H]1CC[C@]2(COC(=O)/C=C/c3cc(OC)c(OC)c(OC)c3)CC[C@]3(C)[C@H](CC[C@@H]4[C@@]5(C)CC[C@H](O)C(C)(C)[C@@H]5CC[C@]43C)[C@@H]12 :: 1.00
4. C=C(C)[C@@H]1CC[C@]2(COC(=O)NCCc3ccc(OC)cc3)CC[C@]3(C)[C@H](CC[C@@H]4[C@@]5(C)CC[C@H](O)C(C)(C)[C@@H]5CC[C@]43C)[C@@H]12 :: 1.53
5. C=C(C)[C@@H]1CC[C@]2(COC(=O)/C=C/c3ccc(OC)cc3OC)CC[C@]3(C)[C@H](CC[C@@H]4[C@@]5(C)CC[C@H](O)C(C)(C)[C@@H]5CC[C@]43C)[C@@H]12 :: 0.74

Task: Given C=C(C)[C@@H]1CC[C@]2(COC(=O)/C=C/c3cc(OC)c(OC)cc3OC)CC[C@]3(C)[C@H](CC[C@@H]4[C@@]5(C)CC[C@H](O)C(C)(C)[C@@H]5CC[C@]43C)[C@@H]12 , respond with its FAR (fluorescence activity ratio).
Output: 0.78
